Data origin: ChEMBL document CHEMBL5523757

test: Acute toxicity in BALB/c mouse assessed as animal survival at 400 mg/kg,ip observed after 14 days; format: organism-based; settings: in vivo, time 14 day
PROPERTY_LABEL: survival at 336 h (%)
Answers are plain numbers, in %.

Input: May I ask what survival at 336 h has been recorded for CCOC(=O)C[C@H]1CSC[C@]1(C(=O)OCC)n1cnc2c(Cl)nc(Cl)nc21 (racemic) ?
Output: 100

====

test system: MCF7; experiment: Antiproliferative activity against human MCF7 cells assessed as inhibition of cell growth incubated for 48 hrs by CCK-8 assay; format: functional, cell-based; conditions: Homo sapiens, MCF7, 48 h
PROPERTY_LABEL: IC50

CCOC(=O)C[C@@H]1CSC[C@]1(C(=O)OCC)n1cnc2c(-c3ccccc3)ncnc21 (racemic)
19.4 µM
CCOC(=O)C[C@H]1CSC[C@]1(C(=O)OCC)n1cnc2c(N3CCCC3)nc(Cl)nc21 (racemic)
38.3 µM

Count: 8. Required value per item: IC50.
1. CCOC(=O)C[C@@H]1CSC[C@@]1(C(=O)OCC)n1cnc2c(Cl)nc(Cl)nc21
2. CCCSc1ncnc2c1ncn2[C@@]1(C(=O)OCC)CSC[C@H]1CC(=O)OCC (racemic)
3. CCOC(=O)C[C@H]1CSC[C@]1(C(=O)OCC)n1cnc2c(-c3ccccc3)ncnc21 (racemic)
4. CCOC(=O)C[C@H]1CSC[C@]1(C(=O)OCC)n1cnc2c(N3CCOCC3)ncnc21 (racemic)
5. CCOC(=O)C[C@@H]1CSC[C@]1(C(=O)OCC)n1cnc2c(N3CCCC3)nc(Cl)nc21 (racemic)
6. CCOC(=O)C[C@H]1CSC[C@]1(C(=O)OCC)n1cnc2c(Cl)ncnc21 (racemic)
7. CCOC(=O)C[C@@H]1CSC[C@]1(C(=O)OCC)n1cnc2c(Cl)ncnc21 (racemic)
8. CCOC(=O)C[C@H]1CSC[C@]1(C(=O)OCC)n1cnc2c(N3CCCCC3)ncnc21 (racemic)

Output:
4.54 µM
23.5 µM
> 50 µM
> 50 µM
> 50 µM
12 µM
43.5 µM
23.8 µM

====

experiment: Acute toxicity in BALB/c mouse assessed as lethal dose at ip administration observed after 14 days; type: organism-based; settings: in vivo, time 14 day
PROPERTY_LABEL: LD50 at 336 h (mg/kg)
One number for each entry, in mg/kg.

Input: May I ask what LD50 at 336 h has been recorded for CCOC(=O)C[C@H]1CSC[C@]1(C(=O)OCC)n1cnc2c(Cl)nc(Cl)nc21 (racemic) ?
Output: 613

====

test system: HCT-116; assay: Antiproliferative activity against human HCT-116 cells assessed as inhibition of cell growth incubated for 48 hrs by CCK-8 assay; format: functional, cell-based; details: Homo sapiens, HCT-116, 48 h
// classify: if (IC50 < 20 µM) True else False

Worked cases, answers included:
CCOC(=O)C[C@@H]1CSC[C@]1(C(=O)OCC)n1cnc2c(N3CCCC3)ncnc21 (racemic)
False
CCOC(=O)C[C@@H]1CSC[C@]1(C(=O)OCC)n1cnc2c(N3CCCCC3)ncnc21 (racemic)
False
CCOC(=O)C[C@@H]1CSC[C@]1(C(=O)OC(C)C)n1cnc2c(Cl)ncnc21 (racemic)
False
CCOC(=O)C[C@@H]1CSC[C@]1(C(=O)OCC)n1cnc2c(Cl)ncnc21 (racemic)
True
CCOC(=O)C[C@@H]1CSC[C@]1(C(=O)OCC)n1cnc2c(Cl)nc(F)nc21 (racemic)
True

Input: In the record for CCOC(=O)C[C@H]1CSC[C@]1(C(=O)OCC)n1cnc2c(N(C)C)ncnc21 (racemic) , is IC50 less than 20 µM?
Output: False

Input: In the record for CCOC(=O)C[C@@H]1CSC[C@]1(C(=O)OCC)n1cnc2c(N3CCCC3)nc(Cl)nc21 (racemic) , is IC50 less than 20 µM?
Output: False

Input: In the record for CCOC(=O)C[C@@H]1CSC[C@]1(C(=O)OCC)n1cnc2c(OCc3ccccc3)ncnc21 (racemic) , is IC50 less than 20 µM?
Output: False

Input: In the record for CCOC(=O)C[C@H]1CSC[C@]1(C(=O)OCC)n1cnc2c(N3CCOCC3)ncnc21 (racemic) , is IC50 less than 20 µM?
Output: False

====

tested on: HCT-116; assay: Antiproliferative activity against human HCT-116 cells assessed as inhibition of cell growth incubated for 48 hrs by CCK-8 assay; format: functional, cell-based; settings: Homo sapiens, HCT-116, 48 h
// classify: if (IC50 < 10 µM) 1 (yes) else 0 (no)

CCOC(=O)C[C@@H]1CSC[C@]1(C(=O)OCC)n1cnc2cncnc21 (racemic)
0 (no)
CCOC(=O)C[C@@H]1CSC[C@]1(C(=O)OC)n1cnc2c(Cl)ncnc21 (racemic)
0 (no)
CCOC(=O)C[C@H]1CSC[C@]1(C(=O)OCC)n1cnc2c(N(CC)CC)ncnc21 (racemic)
0 (no)

Input: In the record for CCOC(=O)C[C@H]1CSC[C@]1(C(=O)OCC)n1cnc2cnc(Cl)nc21 (racemic) , is IC50 less than 10 µM?
Output: 0 (no)

Input: In the record for CCOC(=O)C[C@H]1CSC[C@]1(C(=O)OCC)n1cnc2c(Cl)nc(Cl)nc21 (racemic) , is IC50 less than 10 µM?
Output: 1 (yes)

Input: In the record for CCOC(=O)C[C@H]1CSC[C@]1(C(=O)OC)n1cnc2c(Cl)ncnc21 (racemic) , is IC50 less than 10 µM?
Output: 0 (no)

====

assay: Acute toxicity in BALB/c mouse assessed as animal survival at 200 mg/kg,ip observed after 14 days; assay type: organism-based; conditions: in vivo, time 14 day
PROPERTY_LABEL: survival at 336 h
A bare number is not enough; add the unit after it.

Input: May I ask what survival at 336 h has been recorded for CCOC(=O)C[C@H]1CSC[C@]1(C(=O)OCC)n1cnc2c(Cl)nc(Cl)nc21 (racemic) ?
Output: 100%

====

tested on: MCF7; experiment: Antiproliferative activity against human MCF7 cells assessed as inhibition of cell growth incubated for 48 hrs by CCK-8 assay; format: functional, cell-based; settings: Homo sapiens, MCF7, 48 h
pIC50: −log10 of the molar value.
PROPERTY_LABEL: pIC50

Here are 8 molecules together with their reported answers.
CCOC(=O)C[C@H]1CS(=O)(=O)C[C@]1(C(=O)OCC)n1cnc2c(Cl)nc(Cl)nc21
4.79
CCOC(=O)C[C@H]1CSC[C@]1(C(=O)OCC)n1cnc2cnc(Cl)nc21 (racemic)
< 4.30
CCCSc1ncnc2c1ncn2[C@@]1(C(=O)OCC)CSC[C@@H]1CC(=O)OCC (racemic)
4.51
CCOC(=O)C[C@@H]1CSC[C@]1(C(=O)OCC)n1cnc2c(OC)ncnc21 (racemic)
< 4.30
CCOC(=O)C[C@H]1CSC[C@]1(C(=O)OCC)n1cnc2c(N(CC)CC)ncnc21 (racemic)
< 4.30
CCOC(=O)C[C@@H]1CSC[C@]1(C(=O)OCC)n1cnc2c(N(CC)CC)ncnc21 (racemic)
< 4.30
CCOC(=O)C[C@@H]1CSC[C@]1(C(=O)OCC)n1cnc2cncnc21 (racemic)
< 4.30
CCOC(=O)C[C@@H]1CSC[C@]1(C(=O)OCC)n1cnc2c(N3CCCCC3)ncnc21 (racemic)
4.37

Then there is this molecule:
Input: May I ask what pIC50 has been recorded for CCOC(=O)C[C@H]1CSC[C@]1(C(=O)OC)n1cnc2c(Cl)ncnc21 (racemic) ?
Output: < 4.30

====

assay: Acute toxicity in BALB/c mouse assessed as animal survival at 800 mg/kg,ip observed after 14 days; type: organism-based; details: in vivo, time 14 day
PROPERTY_LABEL: survival at 336 h (%)
One number for each entry, in %.

Input: May I ask what survival at 336 h has been recorded for CCOC(=O)C[C@H]1CSC[C@]1(C(=O)OCC)n1cnc2c(Cl)nc(Cl)nc21 (racemic) ?
Output: 10

====

system: HCT-116; assay: Antiproliferative activity against human HCT-116 cells assessed as inhibition of cell growth incubated for 48 hrs by CCK-8 assay; type: functional, cell-based; conditions: Homo sapiens, HCT-116, 48 h
PROPERTY_LABEL: pIC50
One number for each entry, as −log10 of the molar value.

Here are 10 compounds together with their reported answers.
CCOC(=O)C[C@H]1CSC[C@]1(C(=O)OCC)n1cnc2c(N3CCCC3)nc(Cl)nc21 (racemic)
4.33
CCOC(=O)C[C@@H]1CSC[C@]1(C(=O)OCC)n1cnc2c(OCC)ncnc21 (racemic)
4.70
CCOC(=O)C[C@@H]1CSC[C@]1(C(=O)OCC)n1cnc2c(N(CC)CC)ncnc21 (racemic)
4.38
CCOC(=O)C[C@H]1CSC[C@]1(C(=O)OC(C)C)n1cnc2c(Cl)ncnc21 (racemic)
4.83
CCOC(=O)C[C@H]1CSC[C@]1(C(=O)OCC)n1cnc2c(Cl)ncnc21 (racemic)
4.81
CCOC(=O)C[C@H]1CS(=O)(=O)C[C@]1(C(=O)OCC)n1cnc2c(Cl)nc(Cl)nc21
4.95
CCOC(=O)C[C@H]1C[S+]([O-])C[C@]1(C(=O)OCC)n1cnc2c(Cl)nc(Cl)nc21 (stereo not given in full)
4.77
CCCSc1ncnc2c1ncn2[C@@]1(C(=O)OCC)CSC[C@H]1CC(=O)OCC (racemic)
4.41
CCOC(=O)C[C@@H]1CSC[C@@]1(C(=O)OCC)n1cnc2c(Cl)nc(Cl)nc21
5.43
CCOC(=O)C[C@H]1CSC[C@]1(C(=O)OCC)n1cnc2c(OCc3ccccc3)ncnc21 (racemic)
4.88

Count: 4. Required value per item: pIC50.
1. CCOC(=O)C[C@H]1CSC[C@]1(C(=O)OCC)n1cnc2c(N3CCCCC3)ncnc21 (racemic)
2. CCOC(=O)C[C@@H]1CSC[C@]1(C(=O)OCC)n1cnc2c(Cl)nc(Cl)nc21 (racemic)
3. CCOC(=O)C[C@H]1CSC[C@]1(C(=O)OCC)n1cnc2c(N3CCCCC3)nc(Cl)nc21 (racemic)
4. CCOC(=O)C[C@H]1CSC[C@]1(C(=O)OCC)n1cnc2c(Br)ncnc21 (racemic)

Output:
1. 4.64
2. 5.16
3. 4.65
4. 4.52
